What pIC50 was measured for each of the following?
- tgt: P70S6K (Homo sapiens (Human), UniProt P23443, T412E)
- Sequence (P23443 1-421 T412E): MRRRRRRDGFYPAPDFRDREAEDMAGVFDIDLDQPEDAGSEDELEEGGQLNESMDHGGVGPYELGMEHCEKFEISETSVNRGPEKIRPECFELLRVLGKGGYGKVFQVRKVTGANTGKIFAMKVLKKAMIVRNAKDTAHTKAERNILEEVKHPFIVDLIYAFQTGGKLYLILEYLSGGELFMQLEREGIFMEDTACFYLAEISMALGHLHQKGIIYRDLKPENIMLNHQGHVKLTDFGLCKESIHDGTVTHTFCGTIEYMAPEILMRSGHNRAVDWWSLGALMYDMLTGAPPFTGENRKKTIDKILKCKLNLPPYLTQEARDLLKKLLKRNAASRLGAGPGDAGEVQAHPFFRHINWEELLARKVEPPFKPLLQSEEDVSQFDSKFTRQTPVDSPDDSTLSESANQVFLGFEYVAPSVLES
- experiment: P70S6K Enzyme Assay
- conditions: P70S6K T412E mutant, 24 μM ATP, mobility shift (Caliper)
Give bare numbers, as −log10 of the molar value.

Field: example entries. Status: answers known.
* NC(=O)c1ccc(N2CCC(CNC(=O)c3cc(F)ccc3F)C2)c2cncnc12 (racemic) | 6.29
* COc1ccccc1N1CCN(c2ccc(C(N)=O)c3ncncc23)CC1 | 4.96
* NC(=O)c1ccc(N2CCN(c3ccc(Cl)cc3)CC2)c2cncnc12 | 6.00
* NC(=O)c1ccc(N2CC[C@@](N)(C(=O)Nc3ccccc3)C2)c2cncnc12 (single isomer, unassigned) | 5.67
* NC(=O)c1ccc(NCC2(C(=O)Nc3ccccc3)CCNC2)c2cncnc12 (racemic) | 6.19

Please give pIC50 for each item listed below.
1. NC(=O)c1ccc(N[C@@H]2CNCC[C@H]2c2ccc(F)c(Cl)c2)c2cncnc12 (single isomer, unassigned)
2. NC(=O)c1ccc(NCCCCc2ccccc2)c2cncnc12
3. NC(=O)c1ccc(NCc2ccc(F)c(C(F)(F)F)c2)c2cccnc12

1. 6.46
2. 7.06
3. 6.16

----------
- tgt: P70S6K (Homo sapiens (Human), UniProt P23443, T412E)
- experiment: P70S6K Enzyme Assay
- conditions: P70S6K T412E mutant, 24 μM ATP, mobility shift (Caliper)
- Protocol: P70S6K inhibitor compounds are diluted and plated in 96 well plates. […] The reaction is incubated for 90 min at 25° C., before the addition of 10 mM EDTA to stop the reaction. The proportion of substrate and product (phosphorylated) peptide is analysed on a Caliper Life Sciences Lab Chip 3000, using a pressure of −1.4 psi, and upstream and downstream voltages of −3000 and −700 respectively. Product peaks are resolved before substrate peaks on the resulting chromatograms.
reported_metric: pIC50
One number for each entry, as −log10 of the molar value.

Below, 5 molecules whose answers are already recorded.
* NC(=O)c1ccc(NC2CNC[C@@H]2c2cccc(OC(F)(F)F)c2)c2cccnc12 (single isomer, unassigned) [Example 22] | 7.51
* NC(=O)c1ccc(N2CCC(c3cccc(C(F)(F)F)c3)C(N)C2)c2cncnc12 (racemic) [Example 107] | 6.42
* NC(=O)c1ccc(NCCc2ccc(F)cc2)c2cncnc12 [Example 100] | 6.54
* NC(=O)c1ccc(NCc2ccc(F)cc2)c2cccnc12 [Example 31] | 6.06
* NC(=O)c1ccc(N2CCNC(c3ccccc3)C2)c2cccnc12 (racemic) [Example 18] | 6.17

Go through the items and report each one's pIC50.
1. CN(C)C(CNc1ccc(C(N)=O)c2ncncc12)c1cccc(Cl)c1 (racemic) [Example 68]
2. NC(=O)c1ccc(NC[C@H]2CCNC2)c2cncnc12 [Example 61]

5.59
5.77

I'm hoping you can list pIC50 for every molecule here, please.
1. NC(=O)c1ccc(NC2CNCC2c2cccc(OC(F)(F)F)c2)c2cncnc12 (stereo not shown) [Example 72]
2. NC(=O)c1ccc(N2CCC(NC(=O)Cc3ccc(F)cc3)C2)c2cncnc12 (racemic) [Example 51]

1: 7.00; 2: 5.27

// input: 5 molecules below; output: pIC50 for each
1. NC(=O)c1ccc(N2CCN(c3ccc(F)cc3)CC2)c2cncnc12 [Example 108]
2. NC(=O)c1ccc(NC2CNCCC2c2ccc(C(F)(F)F)c(F)c2)c2cncnc12 (single isomer, unassigned) [Example 5]
3. NC(=O)c1ccc(N2CC[C@@](N)(C(=O)Nc3ccc(F)c(C(F)(F)F)c3)C2)c2cncnc12 (single isomer, unassigned) [Example 116]
4. NC(=O)c1ccc(N2CCC(N)(C(=O)Nc3ccc(F)cc3)C2)c2cncnc12 (racemic) [Example 43]
5. NC(=O)c1ccc(N2CCC(CNC(=O)c3ccc(C(F)(F)F)cc3F)C2)c2cncnc12 (racemic) [Example 55]

[5.64, 8.00, 6.28, 5.92, 6.54]

----------
- tgt: P70S6K (Homo sapiens (Human), UniProt P23443, T412E)
- experiment: P70S6K Enzyme Assay
- conditions: P70S6K T412E mutant, 24 μM ATP, mobility shift (Caliper)
- Protocol: P70S6K inhibitor compounds are diluted and plated in 96 well plates. […] The reaction is incubated for 90 min at 25° C., before the addition of 10 mM EDTA to stop the reaction. The proportion of substrate and product (phosphorylated) peptide is analysed on a Caliper Life Sciences Lab Chip 3000, using a pressure of −1.4 psi, and upstream and downstream voltages of −3000 and −700 respectively. Product peaks are resolved before substrate peaks on the resulting chromatograms.
reported_metric: pIC50
Give bare numbers, as −log10 of the molar value.

Can you give me pIC50 for all of these, one by one?
1. NC(=O)c1ccc(NC2CNC[C@@H]2C(=O)Nc2cccc(F)c2)c2cncnc12 (mixture of isomers)
2. NC(=O)c1ccc(N2CCC(NC(=O)c3ccc(F)c(F)c3)C2)c2cncnc12 (racemic)
3. NC(=O)c1ccc(N2CCC(N)(C(=O)Nc3ccc(F)c(F)c3)C2)c2cncnc12 (racemic)
4. NC(=O)c1ccc(N[C@H]2CNCC[C@@H]2c2ccc(F)cc2)c2cncnc12 (single isomer, unassigned)

[6.54, 6.42, 5.89, 6.54]

Give me pIC50 for each of these molecules, listed below.
1. NC(=O)c1ccc(N[C@@H]2CNC[C@H]2c2cccc(OC(F)(F)F)c2)c2cccnc12 (single isomer, unassigned)
2. NC(=O)c1ccc(N2CC[C@H](c3ccc(F)cc3)[C@H](N)C2)c2cncnc12 (racemic)
3. NC(=O)c1ccc(N2CCN(c3ccccc3)CC2)c2cncnc12

6.16
6.60
5.52

----------
- tgt: P70S6K (Homo sapiens (Human), UniProt P23443, T412E)
- experiment: P70S6K Enzyme Assay
- conditions: P70S6K T412E mutant, 24 μM ATP, mobility shift (Caliper)
reported_metric: pIC50
Answers are plain numbers, as −log10 of the molar value.

Kindly give each listed record's pIC50.
1. NC(=O)c1ccc(N2CCC(CNC(=O)c3ccc(F)c(F)c3)C2)c2cncnc12 (racemic)
2. NC(=O)c1ccc(N2CC[C@H](CNC(=O)c3ccc(F)c(F)c3)C2)c2cncnc12 (single isomer, unassigned)
3. NC(=O)c1ccc(N2CCC(c3ccc(C(F)(F)F)cc3)C(N)C2)c2cncnc12 (racemic)

1. 6.63
2. 6.33
3. 6.46

----------
Can you tell me IC50 for the items I'm about to list?
- tgt: P70S6K (Homo sapiens (Human), UniProt P23443, T412E)
- experiment: P70S6K Enzyme Assay
- Assay type: biochemical
- conditions: P70S6K T412E mutant, 24 μM ATP, mobility shift (Caliper)
Numbers only, in nM.

* NC(=O)c1ccc(NC2CNC[C@@H]2c2cccc(OC(F)(F)F)c2)c2cccnc12 (mixture of isomers) [Example 21] | 22

Please go through the list and note IC50 for each compound.
1. NC(=O)c1ccc(N2CCN(c3ccccc3F)CC2)c2cncnc12 [Example 121]
2. NC(=O)c1ccc(N2CCC(CNC(=O)Cc3ccccc3)C2)c2cncnc12 (centres unmarked) [Example 118]
3. Cc1cccc([C@@H]2CN(c3ccc(C(N)=O)c4ncncc34)C[C@H]2CO)c1 [Example 67]
4. NC(=O)c1ccc(N2CCN(c3ccc(F)c(Cl)c3)CC2)c2cncnc12 [Example 94]
5. NC(=O)c1ccc(NC2CNCC[C@@H]2c2cccc(F)c2)c2cccnc12 (mixture of isomers) [Example 25]
6. NC(=O)c1ccc(N2CCC(NC(=O)Cc3ccccc3)C2)c2cncnc12 (racemic) [Example 47]

1. 12000
2. 260
3. 190
4. 12000
5. 520
6. 7900

Notebook entry, P70S6K (Homo sapiens (Human), UniProt P23443, T412E) assay: IC50 of NC(=O)c1ccc(NC2CNCCC2c2ccc(C(F)(F)F)c(F)c2)c2cncnc12 (racemic) [Example 4] = ? 5.9

----------
- tgt: P70S6K (Homo sapiens (Human), UniProt P23443, T412E)
- experiment: P70S6K Enzyme Assay
- Format: biochemical
- conditions: P70S6K T412E mutant, 24 μM ATP, mobility shift (Caliper)
Record form. Attribute: log10(IC50). Fill in for each entry.
Values reflect log10 of reported IC50 (nM).

// below: answered molecules
* NC(=O)c1ccc(N2CCC(OCc3ccccc3)C2)c2cncnc12 (racemic) | 2.85
* NC(=O)c1ccc(N2CCC(CNC(=O)c3ccc(F)cc3F)C2)c2cncnc12 (racemic) | 2.41

Each molecule below has a reported value. Please supply its log10(IC50).
1. NC(=O)c1ccc(N2CC[C@](N)(C(=O)Nc3ccccc3)C2)c2cncnc12 (single isomer, unassigned)
2. CNCC1CCCN(c2ccc(C(N)=O)c3ncncc23)C1 (racemic)
3. NCC(c1ccc(C(F)(F)F)cc1)N1CCN(c2ccc(C(N)=O)c3ncncc23)CC1 (racemic)

1. 4.06
2. 3.77
3. 2.32
